Please provide measured IC50 at 24 h for the entries that follow.
# experimentSummary: DNDI: Cytotoxicity against L929 mouse fibroblasts, CYTO-SP, 24 hour
# Format: toxicity, cell-based
# measurementConditions: mouse, L929 mouse fibroblasts

So what's the measured IC50 at 24 h for this one? "O/N=C(\NC1CCCCC1)c1cccnc1Oc1ccccc1Br"
> 50 µg/mL

Can you handle "Cc1ccc(Oc2ccc(/C(=N/O)NCC3CC3)cn2)c(C)c1" next?
> 50 µg/mL

Next entry: CCCCCC(C)NCc1coc(-c2ccc(OCCCC)cc2)n1 (centres undefined)
> 50 µg/mL

// same read-out, input: "CN(Cc1coc(-c2ccc(Cl)cc2)n1)C1CCCCC1"
> 50 µg/mL

Another molecule to look at: "COc1cccc(/C(=N/O)N(C(=O)C(C)C)C(=O)C(C)C)c1"
> 50 µg/mL

Quick one: "O/N=C(/c1ccccc1-c1ccccc1)N1CCCCC1"
> 50 µg/mL

Repeat with "O/N=C(\NC1CCCCC1)c1ccc(-c2ccccc2)cc1"
36 µg/mL

How about this molecule: "COc1ccc(Oc2ncccc2/C(=N/O)NC2CCC2)cc1"
> 50 µg/mL

// next record "CC(C)(C)COc1ncccc1/C(=N/O)N1CCCc2ccccc21"
26 µg/mL

All figures here come from ChEMBL document CHEMBL1857833.
